Source listed as PubChem BioAssay (NCI).

- method-notes: NCI Yeast Anticancer Drug Screen. Data for the sgs1 mgt1 strain (AID 161);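 further: 0% = growth of cultures given vehicle only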
- condition-set: S. cerevisiae sgs1 mgt1 strain, at 50.0 µM
Compounds without any hit were thinned out: in the full panel of roughly 79,000, 15% have a hit. Calls of active or inactive are those of the source. No stated cut-off is given here; in the data, active means growth inhibition above about 70%; inactive means the rest.
Hello, when you answer, please use one of the following outcomes: active, inactive

Asked: Query: recorded result category for O=C(NN1C(=O)C(Cl)C1c1cccc(O)c1)c1ccccc1O (stereo unspecified) in this test
Given back: inactive

Asked: Query: recorded result category for COC1C2C[C@@H](O)CCC2C(C(=O)OCCl)C[C@H]1O (stereo partly specified) in this test
Given back: inactive

Asked: Query: recorded result category for CCc1ccc[n+](-c2ccncc2CC)c1 in this test
Given back: inactive

Asked: Query: recorded result category for CCOC(=O)N1CCN(C(=S)N/N=C(\C)c2cnccn2)CC1 in this test
Given back: active

Asked: Query: recorded result category for COc1ccc(N=Cc2ccc([N+](=O)[O-])cc2)cc1 in this test
Given back: inactive

Asked: Query: recorded result category for O=[N+]([O-])c1ccc2nc(NCCCO)c3ccccc3c2c1 in this test
Given back: inactive

Asked: Query: recorded result category for Cc1c([N+](=O)[O-])cc(C(C)(C)C)c(OC(=S)N(C)C)c1[N+](=O)[O-] in this test
Given back: inactive

Asked: Query: recorded result category for O=S(=O)(O)CCS(=O)(=O)O in this test
Given back: inactive

Asked: Query: recorded result category for CCOCC(=O)O in this test
Given back: inactive

Asked: Query: recorded result category for CC(C)(C)[N+](=O)[O-] in this test
Given back: inactive

Asked: Query: recorded result category for OC1CCSc2ccccc21 (stereo unspecified) in this test
Given back: inactive

Asked: Query: recorded result category for O=C(CCCl)OC1CCCC1 in this test
Given back: inactive

Asked: Query: recorded result category for CC1OC(OC2C(OC3C(OC4CCC5(C)C(CCC6(C)C5CC=C5C7CC(C)(C)CCC7(C(=O)O)CCC56C)C4(C)C)OCC(O)C3O)OC(CO)C(O)C2O)C(O)C(O)C1O (stereo unspecified) in this test
Given back: active

Asked: Query: recorded result category for O=C(Nc1ccc(Cl)cc1)Nc1nnc2nc(CC(=O)c3ccc4ccccc4c3)c(=O)[nH]n12 in this test
Given back: inactive

Asked: Query: recorded result category for CC(=O)/C=C\C1CC2C=CC1C2 (stereo unspecified) in this test
Given back: inactive

Asked: Query: recorded result category for CC1(C)OCC(C2OC3OC(C)(C)OC3C2c2ccccc2)O1 (stereo unspecified) in this test
Given back: inactive

Asked: Query: recorded result category for CC1COC(C(C)c2ccccc2)O1 (stereo unspecified) in this test
Given back: inactive

Asked: Query: recorded result category for O=c1[nH]nc(-c2ccccc2)n1/N=C\c1ccccc1 in this test
Given back: inactive

Asked: Query: recorded result category for CC(=O)OCCSc1ccc(Cl)cc1 in this test
Given back: inactive

Asked: Query: recorded result category for CN(C)C(=O)CCCCC(=O)N(C)C in this test
Given back: inactive

Asked: Query: recorded result category for CC1(C)C2CCC1(C)C(NC(=O)COCCOCC(N)=O)C2 (stereo unspecified) in this test
Given back: inactive

Asked: Query: recorded result category for CCCC/C(=N/O)c1ccccc1 in this test
Given back: inactive

Asked: Query: recorded result category for C=CCOCC(COC(=O)CCCCCCCCCCCCCCCCC)OCC=C (stereo unspecified) in this test
Given back: inactive

Asked: Query: recorded result category for CCCCC1(NN=C2CCCCC2)C(=O)N(c2ccccc2)N(c2ccccc2)C1=O in this test
Given back: inactive

Asked: Query: recorded result category for CC1CC(C)C2=NOS3=C2C1=NO3 (stereo unspecified) in this test
Given back: inactive

Asked: Query: recorded result category for CC(=O)OCC1OC(Cl)C(OC(=O)C(Cl)(Cl)Cl)C(OC(C)=O)C1OC(C)=O (stereo unspecified) in this test
Given back: inactive

====

For each record, write down the corresponding growth inhibition.
- method-notes: NCI Yeast Anticancer Drug Screen. Data for the mlh1 rad18 strain (AID 175)
- condition-set: S. cerevisiae mlh1 rad18 strain growth inhibition; at 50.0 µM; active compounds read high
About 79,000 compounds went through this panel and 15% of them were active in at least one assay; those are over-represented in the sample as a whole.
Kindly answer with a numeric value in %, unit omitted.

growth inhibition reading for COC(=O)C(C)CC(C)C(=O)OC (stereo not given) : 16.4

growth inhibition reading for CC1(C)OC[C@@H](O)[C@H](Br)CO1 : -28.1

growth inhibition reading for CCCCCCC(CC)C(N)=O (stereo not given) : -7.6

growth inhibition reading for CCCC1=C(c2ccc(OC)cc2)Cc2cc(OC)ccc21 : 9

growth inhibition reading for CCCCOC(=O)CCCCCCC/C=C/C1C=CC(CCCC)C(C#N)C1C#N (stereo not given) : -13.3

growth inhibition reading for O=C(Cc1n[nH]c(=S)nc1CC(=O)c1cccnc1)c1cccnc1 : 2.7

growth inhibition reading for CN1CCN(CC2C3CCC(C3)C2O)CC1 (stereo not given) : -0.6

growth inhibition reading for Cc1c(-c2ccccc2)noc1-n1nnc2ccccc2c1=O : 9.05

growth inhibition reading for c1ccc(C2OCCO2)c(OCCOc2cc(OCCOc3ccccc3C3OCCO3)c(OCCOc3ccccc3C3OCCO3)cc2OCCOc2ccccc2C2OCCO2)c1 : 12.3

growth inhibition reading for O=C(CN1C(=O)c2ccccc2C1=O)OCC1CCCN2CCCCC12 (stereo not given) : -29.4

growth inhibition reading for O=C(NCCCCC[N+](CCCCCNC(=O)c1ccccc1)(CCCCCNC(=O)c1ccccc1)CCCCCNC(=O)c1ccccc1)c1ccccc1 : -7.85

growth inhibition reading for CCOC(C)C1C2CCCCC21 (stereo not given) : 8.75

growth inhibition reading for N/C(CC/C(N)=N\O)=N\O : -1.7

growth inhibition reading for Cc1c(Cl)cccc1NC(=O)OC/C=C/c1ccccc1 : -10.9

growth inhibition reading for CCc1nnc(N)o1 : -14.2

growth inhibition reading for COCC(=O)c1ccccc1 : 32.9

growth inhibition reading for COC(=O)C1c2ccccc2CC(=O)N1NC(C)=O (stereo not given) : 10.4

growth inhibition reading for COc1cc2c(c(O)c1OC)C(=O)[C@@H]1CCC(=O)N1C2c1ccccc1 (stereo not given in full) : -18.4

growth inhibition reading for COc1ccc(C[n+]2ccccc2C#N)cc1OC : 3.2

growth inhibition reading for CC1=CCCCC1O (stereo not given) : -0.6

growth inhibition reading for O=C(/C=C/c1ccccc1)CCc1c(O)c2ccccc2oc1=O : 28.8

growth inhibition reading for Oc1ccc(N=Cc2ccc3ccccc3n2)cc1 : 4.2

growth inhibition reading for C1CC2(CC3(C1)SCCS3)SCCS2 : 0.05

growth inhibition reading for CC(=O)OC1CCC2(C)C(=CCC3C2CCC2(C)C(/C(C)=N/NC(N)=S)=CCC32)C1 (stereo not given) : 54.1

growth inhibition reading for N=c1oc2cc(O)ccc2cc1C(=O)NCc1ccccc1 : -7.15

====

- method-notes: NCI Yeast Anticancer Drug Screen. Data for the mlh1 rad18 strain (AID 175)
- condition-set: S. cerevisiae mlh1 rad18 strain growth inhibition; at 50.0 µM; active compounds read high
This is part of a sample that, as a whole, favours compounds with a hit. Of some 79,000 tested, about 15% had one in any assay.
For each record, write down the corresponding growth inhibition.
Kindly answer with a numeric value in %, unit omitted.

growth inhibition reading for CCOc1ccc(/C=C/c2ccc(OCC)cc2)cc1 : -24.3

growth inhibition reading for CC(CN1CCCCC1)SSC(C)CN1CCCCC1 (centres undefined) : 44.2

growth inhibition reading for COC(=O)C(NC(=O)C(CC(=O)OC(C)(C)C)NC(=O)OC(C)(C)C)C(O)c1ccccc1 (centres undefined) : -0.85

growth inhibition reading for COc1ccc(OC)c2c(NCCNCCO)cc(NCCNCCO)nc12 : 7.5

growth inhibition reading for Cn1cnc([N+](=O)[O-])c1SC1=NCCS1 : -7.5

growth inhibition reading for CC1OC(OCc2ccc(-c3ccccc3)cc2)CC(N)C1O (centres undefined) : 2.9

growth inhibition reading for O=c1c2cc(S(=O)(=O)Nc3ccc(Cl)cc3Cl)ccc2ncn1NS(=O)(=O)c1cccc2ccccc12 : 14.9

growth inhibition reading for Cc1cc(=O)oc2c1c(C)nn2-c1cccc(Cl)c1 : -1.85

growth inhibition reading for COC(=O)Oc1ccc(Cl)cc1Cl : 5.7

growth inhibition reading for COc1ccc(C2OC3=C(Nc4ccc([N+](=O)[O-])cc4N3)C2=O)cc1 (centres undefined) : -5.8

growth inhibition reading for CCCOC(=O)C(CC)CC(C)C (centres undefined) : 14.8

growth inhibition reading for COc1c(C)c2c(c(C)c1Cl)Oc1c(C=O)c(O)c(Cl)c(C)c1C(=O)O2 : 54.4

growth inhibition reading for O=C(COC(=O)c1ccccc1Br)c1ccc(-c2ccccc2)cc1 : 23.2

growth inhibition reading for COC1Cc2c(C)c(OC(C)=O)c3cccnc3c2O1 (centres undefined) : 5.65

growth inhibition reading for CCOC(C#CC(C)=O)OCC : 47.9

growth inhibition reading for O=S1(=O)C(c2cccc(C(F)(F)F)c2)=C(O)c2cc3ccccc3nc21 : 18.6

growth inhibition reading for CCOc1c(OC)cc(-c2nc3n(n2)C(=O)C(CC)S3)cc1OC (centres undefined) : -4.2

growth inhibition reading for O=C1C(CO)=C[C@H](O)[C@H]2O[C@@H]12 : -29.4

growth inhibition reading for O=COCCCCCc1ccccc1 : -11

growth inhibition reading for N/N=C(\N)N(Cc1ccccc1)c1ccccc1 : 4.75

growth inhibition reading for CC(=O)[C@H]1CC[C@H]2[C@@H]3CC(=O)C4=CC(=O)CC[C@]4(C)[C@H]3C(=O)C[C@]12C : -4.9

growth inhibition reading for O=C1C=C(Nc2ccc(S(=O)(=O)Nc3ncccn3)cc2)c2ccccc2C1=O : 44.6

growth inhibition reading for COc1ccc(CNc2nc3ccccc3nc2C(=O)O)cc1OC : -12.5

growth inhibition reading for OC(CC1CCCCN1)c1cc2c(Cl)cc(Cl)cc2c2cc(C(F)(F)F)ccc12 (centres undefined) : 52
